- Assay target: His6-p37AUF1 wt (human, UniProt Q14103-4 1-287)
- Sequence (Q14103 other isoform, or with tags, fused parts or gaps): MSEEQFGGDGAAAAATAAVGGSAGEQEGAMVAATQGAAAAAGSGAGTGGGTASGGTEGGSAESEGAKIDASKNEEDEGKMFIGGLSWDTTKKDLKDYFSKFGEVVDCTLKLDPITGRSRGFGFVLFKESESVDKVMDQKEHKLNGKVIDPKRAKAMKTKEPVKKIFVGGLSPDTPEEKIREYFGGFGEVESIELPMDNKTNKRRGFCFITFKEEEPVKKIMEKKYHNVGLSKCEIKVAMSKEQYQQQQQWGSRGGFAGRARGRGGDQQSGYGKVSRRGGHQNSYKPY
- Assay remarks: fluorescence anisotropy; Anisotropy: 10 mM Tris-HCl pH 8.0, 100 mM KCl (50 mM for Fl-ARE2), 0.5 mM EDTA, 0.1 ug/ul acetylated BSA, 1 ug/ul heparin, 2 mM DTT, 25 C, RNA 0.2-0.4 nM; EMSA: same with 100 mM KCl, 10% glycerol, 1 nM RNA, on ice, UV crosslinked
- Reported conditions: protein: recombinant; chain copies: 2; label: 3' fluorescein
Outcome measure: Kd (nM)
Response body: numeric value in nM, unit text excluded.

[[record]]
binder = "CCCCUGGCUCACAAAUACCUUAUUUAUUUAUUUAG (ssRNA) [ARE1-Fl]"
units_of_measure = "nM"
quantitative_readout = 19


Consider the additional binder presented here.
What value of Kd has been reported for the following binder? UUAUUUAUUUAUUUAG (ssRNA) [ARE15-G-Fl]
110
